test-target: recombinant human PAI-1 (Homo sapiens, UniProt P05121)
Construct: purchased Molecular Innovations, Inc
Sequence (P05121 24-402): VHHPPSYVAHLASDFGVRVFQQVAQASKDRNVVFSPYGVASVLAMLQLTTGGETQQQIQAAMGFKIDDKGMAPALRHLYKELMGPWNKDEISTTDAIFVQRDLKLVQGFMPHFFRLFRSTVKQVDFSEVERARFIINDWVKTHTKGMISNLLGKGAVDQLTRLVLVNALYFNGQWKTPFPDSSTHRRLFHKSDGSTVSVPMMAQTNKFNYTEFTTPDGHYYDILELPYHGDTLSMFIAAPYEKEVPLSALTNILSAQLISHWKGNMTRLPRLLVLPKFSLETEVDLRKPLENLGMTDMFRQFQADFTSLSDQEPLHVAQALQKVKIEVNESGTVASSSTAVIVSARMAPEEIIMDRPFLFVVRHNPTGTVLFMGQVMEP
protocol-summary: Test Example 2: human PAI-1 inhibitory activity (tPA fluorogenic substrate assay, pH7.4 HEPES buffer)
Format: biochemical
condition-info: pH7.4 HEPES buffer; obtained from Table 5 results
Description: Except using the pH7.4 HEPES buffer instead of pH7.5 Tris buffer, and the change of incubation time from 15 minutes to 10 minutes of the mixed solution added by two-chain tPA solution, tests were carried out similarly to the Test Example 1. <Compotion of pH7.4 HEPES Buffer> 0.1% Polyethylene glycol 8,000 (Hampton Research Corporation) 2 mM Dimethyldecylphoshine oxide [Apo-10] (Fluka Corporation)
measurement-type: IC50 (nM)
Numbers only; they are read as nM.

COc1cc(OC)c(N(Cc2ccc(C(C)(C)C)cc2)C(=O)C(=O)O)cc1-c1ccc(OC(F)(F)F)cc1 ... 1320
CCCOc1ccc(N(Cc2ccc(C(C)(C)C)cc2)C(=O)C(=O)O)c(-c2ccc(OC(F)(F)F)cc2)c1 ... 1080

Look up IC50 of CCCOc1ccc(N(Cc2ccc(C(C)(C)C)cc2)C(=O)C(=O)O)cc1-c1ccc(OC(F)(F)F)cc1 and report it.
1150

Quote IC50 reported for CC(C)(C)c1ccc(CN(C(=O)C(=O)O)c2cccc(-c3ccc(OC(F)(F)F)cc3)c2)cc1 please.
1710

====

test-target: recombinant human PAI-1 (Homo sapiens)
protocol-summary: Test Example 2: human PAI-1 inhibitory activity (tPA fluorogenic substrate assay, pH7.4 HEPES buffer)
condition-info: pH7.4 HEPES buffer; obtained from Table 5 results
measurement-type: IC50 (nM)
Answer in nM, number only, no unit symbol.

The following compounds have reported results that may help.
CCC(CC)Oc1ccc(N(Cc2ccc(C(C)(C)C)cc2)C(=O)C(=O)O)cc1-c1ccc(OC(F)(F)F)cc1 ... 1040
CC(C)(C)c1ccc(CN(C(=O)C(=O)O)c2cc(C(F)(F)F)ccc2-c2ccc(OC(F)(F)F)cc2)cc1 ... 1140
CCCCOc1ccc(N(Cc2ccc(C(C)(C)C)cc2)C(=O)C(=O)O)cc1-c1ccc(OC(F)(F)F)cc1 ... 1130

Consider now this further compound.
Tell us which IC50 value is on record for CCCCCOc1ccc(-c2ccc(OC(F)(F)F)cc2)cc1N(Cc1ccc(C(C)(C)C)cc1)C(=O)C(=O)O
820

====

test-target: recombinant rat PAI-1 (Rattus norvegicus)
Sequence (P20961 24-402): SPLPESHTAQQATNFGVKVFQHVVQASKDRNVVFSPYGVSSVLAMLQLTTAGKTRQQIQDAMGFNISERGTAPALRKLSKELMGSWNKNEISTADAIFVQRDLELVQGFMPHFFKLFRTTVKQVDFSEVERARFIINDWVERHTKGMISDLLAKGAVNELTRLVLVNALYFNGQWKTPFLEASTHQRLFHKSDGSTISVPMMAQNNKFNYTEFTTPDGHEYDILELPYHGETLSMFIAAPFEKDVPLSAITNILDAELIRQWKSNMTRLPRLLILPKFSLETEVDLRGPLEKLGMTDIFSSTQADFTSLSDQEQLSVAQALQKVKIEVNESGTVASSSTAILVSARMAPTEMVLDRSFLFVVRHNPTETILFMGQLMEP
protocol-summary: Test Example 3: rat PAI-1 inhibitory activity (tPA fluorogenic substrate assay, pH7.4 HEPES buffer)
condition-info: pH7.4 HEPES buffer; obtained from Table 7 results
Each entry below lists one item and its recorded pIC50 value.
Hey, just a heads up that pIC50 is the negative log base 10 of the concentration in molar.

Example cases with answers are listed next.
CC(C)(C)c1ccc(CN(C(=O)C(=O)O)c2cccc(Oc3ccc(OC(F)(F)F)cc3)c2)cc1 [compound 52] ... 5.52
CC(C)(C)c1ccc(COc2ccc(-c3ccc(OC(F)(F)F)cc3)cc2N(Cc2ccccc2)C(=O)C(=O)O)cc1 [compound 59] ... 5.95

Output measured pIC50 for this item: CC(C)(C)c1ccc(CN(C(=O)C(=O)O)c2ccc(-c3ccc(OC(F)(F)F)cc3)cc2)cc1 [compound 8]
5.50
